From: paper PMC10726135

- assay-system: HNF4alpha2 (COS-7 nuclear extract) (Homo sapiens, UniProt P41235 1-474)
- Sequence: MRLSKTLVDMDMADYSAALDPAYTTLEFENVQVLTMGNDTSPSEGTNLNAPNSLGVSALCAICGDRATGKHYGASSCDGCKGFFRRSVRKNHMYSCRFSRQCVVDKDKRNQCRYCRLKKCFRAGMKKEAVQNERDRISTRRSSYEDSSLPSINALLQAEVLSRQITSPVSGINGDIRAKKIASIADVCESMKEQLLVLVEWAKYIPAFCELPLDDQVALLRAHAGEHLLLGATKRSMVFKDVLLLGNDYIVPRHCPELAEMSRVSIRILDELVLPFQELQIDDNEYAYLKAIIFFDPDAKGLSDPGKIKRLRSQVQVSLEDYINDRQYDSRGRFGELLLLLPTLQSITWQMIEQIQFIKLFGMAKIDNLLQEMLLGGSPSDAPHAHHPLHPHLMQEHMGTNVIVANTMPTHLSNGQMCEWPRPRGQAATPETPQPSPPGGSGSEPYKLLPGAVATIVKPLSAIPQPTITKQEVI
- experimental-details: protein-binding microarray; COS-7 nuclear extract on double-stranded Agilent 4x180k PBM; binding buffer, salt, pH and temperature not given in the material; high values mean tight binding
- protocol-conditions: chain copies: 2; label: 3' end of strand 1 on the slide; dsDNA, one strand shown
In all, about 18,000 sequences were measured (“log2 normalized intensity”: median about 0.39, highest 2% from about 6.6 on). The entries come from a sample that favours the highest values as a whole.
Use true (1) when the recorded binding signal is no lower than 4 log2 normalized intensity; use false (0) when it is lower.

AGTAACCTGACCCCCAGTGGAATGTGCCCTGCCTAGGGAGATTAGAGTATCGGTCGA : false (0)
CCCCCAGTGGAATGTGCCCTTTGACCTCTCGCCTAGGGAGATTAGAGTATCGGTCGA : true (1)
CACATTGCAGTATGCCCCCCCACCCCACACGCCTAGGGAGATTAGAGTATCGGTCGA : true (1)

[in] Is binding signal for ACTTTGAGGTGTTCTCTGGGGTTAGCCAAAGCCTAGGGAGATTAGAGTATCGGTCGA at or above 4 log2 normalized intensity?
[out] false (0)

[in] Is binding signal for GTGCTCCCTCCCCCTGCATGAACCTTTGCTGCCTAGGGAGATTAGAGTATCGGTCGA at or above 4 log2 normalized intensity?
[out] false (0)

---

- assay-system: HNF4alpha2 (COS-7 nuclear extract) (Homo sapiens, UniProt P41235 1-474)
- Sequence: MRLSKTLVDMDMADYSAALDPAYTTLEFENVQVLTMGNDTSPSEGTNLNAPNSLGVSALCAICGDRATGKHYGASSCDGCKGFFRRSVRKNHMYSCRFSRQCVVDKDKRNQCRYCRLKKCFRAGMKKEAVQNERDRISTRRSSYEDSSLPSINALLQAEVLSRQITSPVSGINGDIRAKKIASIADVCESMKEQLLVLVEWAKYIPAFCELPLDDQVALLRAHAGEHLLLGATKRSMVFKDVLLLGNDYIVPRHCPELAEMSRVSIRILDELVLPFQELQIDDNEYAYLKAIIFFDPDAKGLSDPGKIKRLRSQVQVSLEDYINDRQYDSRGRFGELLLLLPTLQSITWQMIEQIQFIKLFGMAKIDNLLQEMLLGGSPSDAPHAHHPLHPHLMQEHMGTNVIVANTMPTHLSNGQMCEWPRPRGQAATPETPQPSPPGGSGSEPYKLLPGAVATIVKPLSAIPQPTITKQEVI
- experimental-details: protein-binding microarray; COS-7 nuclear extract on double-stranded Agilent 4x180k PBM; binding buffer, salt, pH and temperature not given in the material; high values mean tight binding
- protocol-conditions: chain copies: 2; label: 3' end of strand 1 on the slide; dsDNA, one strand shown
Whole data set: some 18,000 sequences, median “log2 normalized intensity” near 0.39, cut for the highest 2% near 6.6. What follows is part of a selection rich in the highest values, with near analogues and random picks from the rest.
property-label: binding signal (log2 normalized intensity)
The response must be a number in log2 normalized intensity with no trailing unit.

CCAAAGTCCTTCCCAAGTCCTGCATGTGTTGCCTAGGGAGATTAGAGTATCGGTCGA : 1.84
TTTCATCTTCTTAGCCTTTGAACCCCACACGCCTAGGGAGATTAGAGTATCGGTCGA : 4.78
GCCCCCGCAGACCCAGTCTTAGGGACTAAGGCCTAGGGAGATTAGAGTATCGGTCGA : 3.86
CTGCAGTGTGACCTTTGCCTTCTTGACATCGCCTAGGGAGATTAGAGTATCGGTCGA : 5.94

[in] Look up HNF4alpha2 (COS-7 nuclear extract) (Homo sapiens, UniProt P41235 1-474) data: binding signal of GGAAGTCCAGCATTCTTTTCCCCATACCAGGCCTAGGGAGATTAGAGTATCGGTCGA , then report it.
[out] 1.33

[in] Look up HNF4alpha2 (COS-7 nuclear extract) (Homo sapiens, UniProt P41235 1-474) data: binding signal of TCCCTATGTTGTCCCTGCCCTTTGTCCAGGGCCTAGGGAGATTAGAGTATCGGTCGA , then report it.
[out] 3.89

[in] Look up HNF4alpha2 (COS-7 nuclear extract) (Homo sapiens, UniProt P41235 1-474) data: binding signal of GGAGAGAGTTTGGCCCCAGTTCCCATGGACGCCTAGGGAGATTAGAGTATCGGTCGA , then report it.
[out] 1.18

[in] Look up HNF4alpha2 (COS-7 nuclear extract) (Homo sapiens, UniProt P41235 1-474) data: binding signal of AAGAAGGTTTACTCAAGCAAAAAGTTTGGAGCCTAGGGAGATTAGAGTATCGGTCGA , then report it.
[out] 0.467

[in] Look up HNF4alpha2 (COS-7 nuclear extract) (Homo sapiens, UniProt P41235 1-474) data: binding signal of GACCAGGTTGTGAGGGAGGGCACAGGCAACGCCTAGGGAGATTAGAGTATCGGTCGA , then report it.
[out] -0.298

[in] Look up HNF4alpha2 (COS-7 nuclear extract) (Homo sapiens, UniProt P41235 1-474) data: binding signal of TTGCCCACATTCACACAATCAGTGTGTTGAGCCTAGGGAGATTAGAGTATCGGTCGA , then report it.
[out] -0.0239

[in] Look up HNF4alpha2 (COS-7 nuclear extract) (Homo sapiens, UniProt P41235 1-474) data: binding signal of TTGCACTGCTCAGGGTGGGGTCTCGCTGCTGCCTAGGGAGATTAGAGTATCGGTCGA , then report it.
[out] -0.755

[in] Look up HNF4alpha2 (COS-7 nuclear extract) (Homo sapiens, UniProt P41235 1-474) data: binding signal of TGTGCAGCTTTGTGTAAAACTTCAAAGAAGGCCTAGGGAGATTAGAGTATCGGTCGA , then report it.
[out] -0.427

[in] Look up HNF4alpha2 (COS-7 nuclear extract) (Homo sapiens, UniProt P41235 1-474) data: binding signal of TTACCCTGCAGTGTGACCTTTGCCTTCTTGGCCTAGGGAGATTAGAGTATCGGTCGA , then report it.
[out] 7.49
